# T/C listing for each entry below
- Test system: P388 leukemia ip, CD2F1 mice, survival T/C
- ASSAY_TEXT: NCI In Vivo Anticancer Drug Screen. Data for tumor model P388 Leukemia (intraperitoneal) in CD2F1 (CDF1) mice
- SETTINGS: endpoint: median survival time; dose: 3.12 mg/kg/injection; schedule: Q01DX009 (ip); vehicle: water; higher = longer survival
Toxic doses and inconclusive results are not listed.

INSERT INTO measurements (molecule, result) VALUES
  ('O=NNc1ccnc(-c2cc(NN=O)ccn2)c1', '114 % of control'),
  ('O=NNc1cncc2ccccc12', '94 % of control'),
  ('CCOCCC(=O)NCC(=O)NC1C(C)OC(Nc2ncnc3nc[nH]c23)C(O)C1O (centres undefined)', '94 % of control');

From here, focus on the item given below.
Look up and report measured T/C for this entry: Cc1cccc(NN=O)n1
115 % of control
